- tested_system: protein tyrosine phosphatase 1β (PTP1β) (Homo sapiens)
- Sequence (P18031 1-322 limits assumed): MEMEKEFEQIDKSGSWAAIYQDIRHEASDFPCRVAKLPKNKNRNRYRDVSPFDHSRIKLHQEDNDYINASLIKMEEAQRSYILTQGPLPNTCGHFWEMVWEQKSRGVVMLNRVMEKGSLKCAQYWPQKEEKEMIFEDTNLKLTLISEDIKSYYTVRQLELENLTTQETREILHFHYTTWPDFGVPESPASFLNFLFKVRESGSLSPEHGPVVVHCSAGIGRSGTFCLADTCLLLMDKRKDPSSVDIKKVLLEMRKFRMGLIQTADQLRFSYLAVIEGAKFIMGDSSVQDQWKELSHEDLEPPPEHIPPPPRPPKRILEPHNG
- assay_procedure: PTP1β inhibitory activity assay (colorimetric kit, IR5 phosphopeptide substrate)
- Assay type: biochemical
- test_conditions: 10 μg/mL; - is no activity
Record form. Attribute: inhibition at 10 µg/mL. Fill in for each entry.

{"columns": ["compound", "tested_system", "inhibition at 10 µg/mL"],
 "data": [
  ["OC[C@H]1O[C@H](OC[C@H]2O[C@H](O[C@]3(CO)O[C@H](CO)[C@@H](O)[C@@H]3O)[C@H](O)[C@@H](O)[C@@H]2O)[C@H](O)[C@@H](O)[C@H]1O", "protein tyrosine phosphatase 1β (PTP1β) (Homo sapiens)", "< 0%"],
  ["COc1c(O)cc2oc(-c3ccc(O)c(O)c3)c(OC3OC(C(=O)O)C(O)C(O)C3O)c(=O)c2c1O (stereo not drawn) [compound 8, patuletin-3-glucuronide]", "protein tyrosine phosphatase 1β (PTP1β) (Homo sapiens)", "< 0%"]
]}

Now for a further compound.
Recorded result, Nc1ccn([C@@H]2O[C@H](CO)[C@@H](O)[C@H]2O)c(=O)n1 , inhibition at 10 µg/mL: < 0%
